- System: HOP-92
- experimentSummary: NCI tumour cell line growth inhibition, 48 h
The source made the active and inactive calls. Cut-off read from the data, not from the text of the source: active = GI50 up to about 1.1 µM and inactive = higher.
Outcomes you can answer with include only these: active, inactive

Qu. Outcome? COc1ccc(/C=C2\CCC(CNc3ccc(Br)cc3)C2=O)cc1 (configuration not stated)
Ans. inactive

Qu. Which result was noted for this molecule in the test: Cc1ccc2c3ccc4c(c3n(C)c2c1)C(=O)C=CC4=O
Ans. inactive

Qu. Please share the test call associated with O=C(Cc1ccccc1)NN1C(=O)/C(=C\c2ccccc2)S/C1=N\c1ccccc1 .
Ans. inactive

Qu. // return assay outcome for COc1cc(Nc2nc3cc(C(F)(F)F)ccc3nc2C(=O)O)cc(OC)c1OC
Ans. inactive

Qu. Any idea what this test logged for C=CCN(c1cc(OCc2ccccc2)c2[nH]cc(C)c2c1)S(C)(=O)=O ?
Ans. inactive

---

- Test system: NCI-H23
- experimentSummary: NCI tumour cell line growth inhibition, 48 h
The source made the active and inactive calls. Rule as the data show it: active = GI50 up to about 1.1 µM and inactive = higher.
measurementKind: GI50

compound	measurementKind	result
CCOC1=NC(C(F)(F)F)(C(F)(F)F)N=C(N2CCCCC2)O1	GI50	> 100 µM (inactive)

Qu. Provide only the value of recorded GI50 for O=C(Cc1ccccc1)NN1C(=O)C(Cl)C1c1ccccc1Cl (centres undefined)
Ans. 64.1 µM (inactive)

Qu. Please supply the value of reported GI50 for the item Cc1ccc(S(=O)(=O)Oc2nc3ccccc3nc2OS(=O)(=O)c2ccc(C)cc2)cc1
Ans. > 100 µM (inactive)

Qu. Give recorded GI50. COc1cc(C2c3cc4c(cc3[C@@H](Nc3ccc(C(=O)O)cc3)C3COC(=O)[C@H]23)OCO4)cc(OC)c1O (some centres undefined)
Ans. 7.74 µM (inactive)

Qu. Input COC(=O)/C(C)=N/N=C(\S)SC , output reported GI50.
Ans. 45.6 µM (inactive)

Qu. Fill in reported GI50 for this entry: Cc1cc2c(c(=O)o1)C1=S(SC(c3ccccc3)=C1)S2 (centres undefined)
Ans. 78.9 µM (inactive)

Qu. Specify GI50 for CN1C(=O)C2C(=O)N(Cc3ccccc3)CC(=O)N2c2cccnc21 (centres undefined) and stop.
Ans. > 100 µM (inactive)

Qu. Annotate the compound O=C(OCc1ccc([N+](=O)[O-])cc1)N1c2ccccc2[C@@]23O[C@]24CCC[C@H]3C#C/C=C\C#C[C@H]14 with its measured GI50.
Ans. > 100 µM (inactive)

Qu. Please indicate GI50 recorded for C=C1CC2OC2(C(=O)O[C@H]2CCC3[C@@H]4CCC5=CC(=O)CC[C@]5(C)C4CC[C@@]32C)C1=O (some centres undefined)
Ans. 9.53 µM (inactive)

---

- Test system: K562
- experimentSummary: NCI tumour cell line growth inhibition, 48 h
The source made the active and inactive calls. Rule as the data show it: active = GI50 up to about 1.1 µM and inactive = higher.
measurementKind: GI50

Take a look at these entries with their results.
molecule	GI50
N=C(N)SCc1cccc2c(=O)cc(-c3ccccc3)oc12	5.35 µM (inactive)
O=C(/N=c1/[nH]/c(=N/C(=O)c2ccccc2)ss1)c1ccccc1	20.4 µM (inactive)
CN1C(=O)C2C(=O)N(Cc3ccccc3)CC(=O)N2c2cccnc21 (stereo unspecified)	> 100 µM (inactive)
COc1ccc(S(=O)(=O)NC(CCC(=O)NC(N)=O)C(=O)NC(N)=O)cc1 (stereo unspecified)	> 100 µM (inactive)
O=C(/C=C1\N=C(c2ccccc2)N(c2ccc3c(c2)Sc2cc(N4C(=O)/C(=C/C(=O)/C=C/c5ccccc5)N=C4c4ccccc4)ccc2N3)C1=O)/C=C/c1ccccc1	30.8 µM (inactive)

Turning now to a further record.
Qu. Return GI50 (reported value) for this molecule: C=CC1(CBr)CCC(C(C)(C)Br)O1 (stereo unspecified)
Ans. 3.71 µM (inactive)
